Values from patent US10004732B2

Test system: PI 3-kinase beta (Homo sapiens)
Sequence (P42338 whole entry): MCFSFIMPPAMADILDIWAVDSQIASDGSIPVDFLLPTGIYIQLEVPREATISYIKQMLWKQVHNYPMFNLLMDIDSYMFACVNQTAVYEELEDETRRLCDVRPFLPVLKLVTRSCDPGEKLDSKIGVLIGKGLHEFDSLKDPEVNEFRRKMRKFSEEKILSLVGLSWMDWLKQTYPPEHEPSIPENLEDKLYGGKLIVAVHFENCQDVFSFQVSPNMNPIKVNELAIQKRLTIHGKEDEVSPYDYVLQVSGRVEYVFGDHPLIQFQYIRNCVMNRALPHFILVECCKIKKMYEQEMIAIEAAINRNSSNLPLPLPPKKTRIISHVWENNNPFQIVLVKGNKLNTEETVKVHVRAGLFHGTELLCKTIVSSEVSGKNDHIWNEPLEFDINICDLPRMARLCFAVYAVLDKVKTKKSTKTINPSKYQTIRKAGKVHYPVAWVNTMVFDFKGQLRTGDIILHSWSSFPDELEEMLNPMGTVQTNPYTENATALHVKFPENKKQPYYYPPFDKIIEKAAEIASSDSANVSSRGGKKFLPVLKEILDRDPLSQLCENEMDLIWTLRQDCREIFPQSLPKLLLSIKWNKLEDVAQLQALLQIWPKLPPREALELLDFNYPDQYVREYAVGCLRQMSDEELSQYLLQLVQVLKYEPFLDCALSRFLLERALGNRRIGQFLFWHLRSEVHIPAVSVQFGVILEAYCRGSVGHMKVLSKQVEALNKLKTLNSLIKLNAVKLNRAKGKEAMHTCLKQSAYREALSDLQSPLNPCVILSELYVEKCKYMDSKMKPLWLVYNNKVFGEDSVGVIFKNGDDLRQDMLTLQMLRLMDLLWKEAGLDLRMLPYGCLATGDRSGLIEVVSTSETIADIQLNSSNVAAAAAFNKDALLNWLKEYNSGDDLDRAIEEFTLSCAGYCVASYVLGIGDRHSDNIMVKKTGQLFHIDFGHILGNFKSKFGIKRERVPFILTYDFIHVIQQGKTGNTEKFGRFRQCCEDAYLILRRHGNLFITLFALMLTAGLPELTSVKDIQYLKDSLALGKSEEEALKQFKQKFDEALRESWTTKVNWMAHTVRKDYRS
Sequence (P27986 461-568 partner): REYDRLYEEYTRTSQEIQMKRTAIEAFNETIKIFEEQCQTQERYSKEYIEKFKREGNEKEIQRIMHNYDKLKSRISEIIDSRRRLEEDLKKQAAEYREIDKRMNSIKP
Protocol details: Kinase Glo Luminescent Kinase Assay (Kglo), assay B
Format: biochemical
Condition set: read-out: Assay B PI3Kβ IC50
pIC50: −log10 of the molar value. Counter-ions that a name gives are not always drawn.
Known pIC50 of a selection of compounds
Measured endpoint: pIC50

>>> df
                                    compound  limit_qualifier  assay_value
 0  CCc1noc(-c2nc(-c3cc(S(=O)(=O)NCCC(C)(C)O)ccc3C)cnc2N)n1 [Example 136]                <         5.04
 1  Cc1ccc(S(=O)(=O)NCCC(C)(C)O)cc1-c1cnc(N)c(-c2cnn(C(C)C)c2)n1 [Example 119.31]                =         5.11
 2  Cc1ccc(S(=O)(=O)NC[C@@H]2CCNC2)cc1-c1cnc(N)c(-n2cncn2)n1 [Example 127.57, trifluoroacetic acid salt]                =         6.14
 3  Cc1ncc(-c2nc(-c3cc(S(=O)(=O)NCC4(O)COC4)ccc3C)cnc2N)s1 [Example 45.11]                =         6.54
 4  Cc1ccc(S(=O)(=O)N[C@H]2CC[C@](C)(O)CC2)cc1-c1cnc(N)c(-n2cncn2)n1 [Example 69a]                =         5.46
 5  CC[C@@H](CO)NS(=O)(=O)c1ccc(C)c(-c2cnc(N)c(-c3ccnc(C)c3)n2)c1 [Example 129.6]                <         5.04
 6  Cc1ncc(-c2nc(-c3cc(S(=O)(=O)NCCCO)ccc3C)cnc2N)s1 [Example 10]                =         6.05
 7  Cc1cc(-c2nc(-c3cc(S(=O)(=O)NCC(C)(C)N4CCOCC4)ccc3C)cnc2N)ccn1 [Example 129.29]                =         5.27
 8  Cc1ccc(S(=O)(=O)NCC(F)F)cc1-c1cnc(N)c(-n2cncn2)n1 [Example 34]                =         5.60
 9  Cc1ccc(S(=O)(=O)NCC(C)(C)O)cc1-c1cnc(N)c(-n2cnc(CN(C)C)n2)n1 [Example 117, hydrochloride salt]                <         5.00
10  Cc1ccc(S(=O)(=O)N[C@H]2CC[C@H](O)CC2)cc1-c1cnc(N)c(-c2cnn(C)c2)n1 [Example 58]                =         5.53
11  COc1ccc(-c2nc(-c3cc(S(=O)(=O)NCCC(C)(C)O)ccc3C)cnc2N)c(C)n1 [Example 119.14]                <         5.04
12  Cc1ccc(S(=O)(=O)NCCC(C)(C)O)cc1-c1cnc(N)c(-c2cccs2)n1 [Example 119.45]                =         5.44
13  Cc1ccc(S(=O)(=O)NCCCF)cc1-c1cnc(N)c(-n2cncn2)n1 [Example 127.29]                =         5.74
14  Cc1ccc(S(=O)(=O)N[C@H]2CC[C@@](C)(O)CC2)cc1-c1cnc(N)c(-n2cncn2)n1 [Example 69b]                =         5.85
15  Cc1cc(-c2nc(-c3cc(S(=O)(=O)NC4CCN(C)CC4)ccc3C)cnc2N)ccn1 [Example 129.22]                <         5.04
16  Cc1cc(-c2nc(-c3cc(S(=O)(=O)NC[C@@](C)(O)C(F)(F)F)ccc3C)cnc2N)ccn1 [Example 129.20]                =         5.07
17  CC(C)(O)CNS(=O)(=O)c1ccc(Cl)c(-c2cnc(N)c(-n3cncn3)n2)c1 [Example 37]                =         5.46
18  Cc1ncc(-c2nc(-c3cc(S(=O)(=O)NC[C@H]4CCOC4)ccc3C)cnc2N)s1 [Example 42]                =         6.18
19  Cc1ccc(S(=O)(=O)N2CCCC(F)(F)C2)cc1-c1cnc(N)c(-n2cncn2)n1 [Example 127.1]                =         5.92
20  CC[C@H](CO)NS(=O)(=O)c1ccc(C)c(-c2cnc(N)c(-c3ccnc(C)c3)n2)c1 [Example 129.7]                <         5.04
